These entries and their values trace back to paper PMC12299140.

Property: log10 IC50; scope: individual molecules
Test system: chloroquine-resistant P. falciparum strain Dd2
Assay: Malstat assay, chloroquine-resistant strain Dd2
Type: cell-based, Plasmodium falciparum
Settings: Plasmodium falciparum; chloroquine-resistant strain Dd2, Malstat assay, 72 h; read-out: IC50 P. falciparum Dd2
Remember, log10 of IC50, in µM.

Sample answers from the record:
# molecule, system tested, log10 IC50
rows = [
    ("COC(=O)c1ccc(C2=Cc3nc(C)cc4cc(O)cc(c34)O2)cc1 [Compound 18c]", "chloroquine-resistant P. falciparum strain Dd2", -0.40),
    ("NCc1cc2cc(O)cc3c2c(n1)C=C(c1ccccc1)O3 [Compound 11d]", "chloroquine-resistant P. falciparum strain Dd2", 0.08),
    ("CC1=Cc2nc(C)cc3cc(O)cc(c23)O1 [Compound 5, Cassiarin A]", "chloroquine-resistant P. falciparum strain Dd2", 1.13),
    ("Cc1cc2cc(O)cc3c2c(n1)C=C(c1ccccc1)O3 [Compound 11c]", "chloroquine-resistant P. falciparum strain Dd2", 0.23),
]

Cc1cc2cc(O)cc3c2c(n1)C=C(c1ccc(O)cc1)O3 [Compound 11g] yielded log10 IC50 of 0.28
